# Organism: Homo sapiens
# assay_method_text: To identify inhibition of the IFN signalling (Jak-Stat) pathway via expression of an eGFP reporter gene under the control of an IFN-stimulated response element (ISRE) containing MxA promoter.
# Type: functional
# Parameters: scale not given: direction of the effect not stated beside the values
# recorded_conditions: 30 µM
observable: Percent Effect (%)
Report the figure in % without appending any unit label.

Q: What Percent Effect value was documented for this compound, CSCC(CCO)NC(=O)Nc1cccc(Br)c1 (configuration not stated) ?
A: 6.61

Q: What Percent Effect value was documented for this compound, "CC1CCN(C(=O)CN(Cc2ccco2)C2CC2)CC1" ?
A: 3.81

Q: What Percent Effect value was documented for this compound, "CC(=O)Nc1ncc(S(=O)(=O)Nc2ccc(F)cc2)s1" ?
A: 20.4

Q: What Percent Effect value was documented for this compound, CNC(=O)c1cccc(CNC(=O)C2CC(=O)N(CCN(C)C)C2)c1 (configuration not stated) ?
A: 14.1

Q: What Percent Effect value was documented for this compound, Cc1ccc(N2CCCN(C(=O)C(C(C)C)n3cncn3)CC2)nn1 (configuration not stated) ?
A: 9.49

Q: What Percent Effect value was documented for this compound, CCn1nc(C)c(CNC(=O)c2cn(CCC3CCCCN3)nn2)c1C (configuration not stated) ?
A: -25.2

Q: What Percent Effect value was documented for this compound, O=C(CN1CCCC(O)C1)NC(=O)NCc1cccs1 (configuration not stated) ?
A: 15.4

Q: What Percent Effect value was documented for this compound, O=C(CC1CN(Cc2ccccc2)CCO1)NC1CCCC1 (configuration not stated) ?
A: 15.4

Q: What Percent Effect value was documented for this compound, "Cc1cnn(CCNCc2ccc(OCc3csc(C)n3)cc2)c1" ?
A: 11.2

Q: What Percent Effect value was documented for this compound, CN1CCC(C(=O)NCc2nncn2-c2ccccc2)CC1=O (configuration not stated) ?
A: 13.5

Q: What Percent Effect value was documented for this compound, "O=C(Cn1ccc2ccc(Br)cc21)NCc1ccc(C(=O)O)cc1" ?
A: -5.25

Q: What Percent Effect value was documented for this compound, CN(C)c1nc2c(c(N3CCC(O)CC3)n1)CN(CC1CCNC1)CC2 (configuration not stated) ?
A: 2.62

====

# system_name: Ubiquitin-activating enzyme e1, putative (Leishmania donovani (strain BPK282A1))
# assay_method_text: Leishmania donovani Ubiquitin Activating Enzyme (LdE1)
# Assay type: functional
# Design: scale not given: direction of the effect not stated beside the values
# recorded_conditions: 30 µM
Entries with a potency or affinity are not part of this list.
observable: Percent Effect

Q: What Percent Effect value was documented for this molecule, "Fc1ccc(CN2CCO[C@H]3[C@H](OCC4CC4)CC[C@@H]32)cc1" ?
A: -2.67%

Q: What Percent Effect value was documented for this molecule, COc1c(CNC2CCCc3ccccc32)c(C)nn1C (configuration not stated) ?
A: 21.6%

Q: What Percent Effect value was documented for this molecule, "COCCN(C)C(=O)c1ccc(OC)cc1O" ?
A: 0%

Q: What Percent Effect value was documented for this molecule, "CCCc1cc(C(=O)N(C)Cc2cnc3ccccc3n2)n(C)n1" ?
A: 5.2%

Q: What Percent Effect value was documented for this molecule, "NS(=O)(=O)N1CCc2ccc(NC(=O)Cc3ccc(F)cc3)cc21" ?
A: 2.74%

Q: What Percent Effect value was documented for this molecule, Cc1nc(C)n(CC2CCCN(Cc3cccc(C#N)c3)C2)n1 (configuration not stated) ?
A: -18.9%

Q: What Percent Effect value was documented for this molecule, "Cc1noc(C(C)C)c1C(=O)NS(=O)(=O)c1ccc(Cl)cc1" ?
A: 2.63%

Q: What Percent Effect value was documented for this molecule, CS(=O)(=O)N1CCCCCC1C1CCN(c2ncccn2)CC1 (configuration not stated) ?
A: 2.63%

Q: What Percent Effect value was documented for this molecule, O=C1COC2(COCCN(Cc3cccnc3)C2)CN1c1ccoc1 (configuration not stated) ?
A: 5.2%

Q: What Percent Effect value was documented for this molecule, CC(C)c1nc(C2CCCN2CC(=O)N2CCNC2=O)no1 (configuration not stated) ?
A: 2.63%

Q: What Percent Effect value was documented for this molecule, CSCC(C)(O)CNC(=O)c1cc(Br)ccc1Cl (configuration not stated) ?
A: 2.74%

Q: What Percent Effect value was documented for this molecule, "COc1cc(C)nc(N2CCN(C(=O)c3ccc[nH]3)CC2)n1" ?
A: 10.8%
